Cited source for all entries: a melting point compilation (Tetko et al.; mined from patent text by program, amines drawn as free bases though some values may be those of a salt)

# melting point listing for each entry below

// solved cases for melting point follow
{"compound": "Fc1cccc(F)c1-c1ncc(Oc2cccc(Cl)c2)nn1", "melting point": "132 to 137 °C"}
{"compound": "C/C(=C\\C(N)=O)c1ccc2c(c1)C(C)(C)OC(=O)N2", "melting point": "198 to 200 °C"}
{"compound": "COc1cc(C(=O)O)ccc1Cn1nc(O)c2ccc(NC(=O)CC3CCCC3)cc21", "melting point": "269 to 272 °C"}
{"compound": "COc1ccc(-c2ccc(OC3SCC(OC(C)=O)C(OC(C)=O)C3OC(C)=O)cn2)cc1 (configuration not stated)", "melting point": "208 °C"}
{"compound": "COc1c(Cl)ccc(C#N)c1F", "melting point": "94 to 97 °C"}

Enquiry: Please list melting point recorded for the compound CCOC(=O)C(=CNc1ncnc2ccc(N(C(=O)CC(C)(C)C)C(=O)CC(C)(C)C)cc12)C(=O)OCC
Return: 100 to 102 °C

Enquiry: Please indicate melting point recorded for COc1ccc(-c2ccc(F)cc2F)cc1
Return: 73 to 76 °C

###

assay metric: melting point

# annotated cases, reported melting point shown
{"molecule": "COc1cc2c(cc1C(F)(F)F)N(C(=O)Nc1cccc(C(=O)Nc3cccnc3)c1)CC2", "val": "> 220 °C"}
{"molecule": "CN(C)CCc1c(CC(C)(C)[N+](=O)[O-])c2ccccc2n1C", "val": "87 to 90 °C"}
{"molecule": "COc1cc(Nc2nccc(-c3ccc(NCCCCO)nc3)n2)cc(OC)c1OC", "val": "170 to 171 °C"}
{"molecule": "CCOc1cc(I)cc(OCC)c1OCC", "val": "44 to 46 °C"}

Enquiry: Supply reported melting point belonging to this molecule: O=Cc1cc(-c2ccccc2)c2ccc3c(-c4ccccc4)cc(C=O)nc3c2n1
Return: 165 to 170 °C

Enquiry: Entry COc1cc(OC)nc(Oc2cccc(Cl)c2N)n1 needs its melting point filled in; supply it.
Return: 86 to 87 °C

Enquiry: Supply measured melting point of Cc1cc(C)cc(NC(=O)[C@@H](C)NC(=O)c2cc([N+](=O)[O-])c(Cl)c([N+](=O)[O-])c2)c1 in your reply.
Return: 202 to 204 °C

Enquiry: Given CCCCCCC(=O)c1ccc(OCCN2CCN(c3cc(Cl)nnc3Cl)CC2)cc1 , respond with its melting point.
Return: 113 to 115 °C

Enquiry: Please list melting point recorded for the molecule CC(=O)Oc1ccc(Nc2nc(N)ncc2Oc2ccc(Cl)cc2)cc1
Return: 132 to 133 °C

###

assay metric: melting point

Solved entries (count: 5):
{"compound": "CCCCc1nc2c(c(=O)[nH]1)CN(C(=O)C(C)(C)O)CC2", "assay metric": "melting point", "val": "159 to 161 °C"}
{"compound": "O=C(O)c1cc2ncnn2nc1NCCCN1CCC(OC(c2ccccc2)c2ccccc2)CC1", "assay metric": "melting point", "val": "207 to 209 °C"}
{"compound": "CCc1nc2c(c(C)c(C)n3nnnc23)n1CCOCCNS(=O)(=O)CCCCl", "assay metric": "melting point", "val": "126 to 129 °C"}
{"compound": "COc1cccc(C(CCN2CCN(Cc3cccc(F)c3)CC2)C2(O)CCCCC2)c1 (stereo unspecified)", "assay metric": "melting point", "val": "131 to 133 °C"}
{"compound": "O=C1CCCC(=O)C1Br", "assay metric": "melting point", "val": "153 to 154 °C"}

Let's switch to this compound now.
Enquiry: // Input: CNC(=O)c1cnn(-c2ccccc2)c1Br . Output its melting point only.
Return: 157 to 159 °C
